Give measured IC50 for each item. Keep answers brief.
Molecular target: human recombinant Aminopeptidase N (Homo sapiens)
Sequence (P15144 whole entry): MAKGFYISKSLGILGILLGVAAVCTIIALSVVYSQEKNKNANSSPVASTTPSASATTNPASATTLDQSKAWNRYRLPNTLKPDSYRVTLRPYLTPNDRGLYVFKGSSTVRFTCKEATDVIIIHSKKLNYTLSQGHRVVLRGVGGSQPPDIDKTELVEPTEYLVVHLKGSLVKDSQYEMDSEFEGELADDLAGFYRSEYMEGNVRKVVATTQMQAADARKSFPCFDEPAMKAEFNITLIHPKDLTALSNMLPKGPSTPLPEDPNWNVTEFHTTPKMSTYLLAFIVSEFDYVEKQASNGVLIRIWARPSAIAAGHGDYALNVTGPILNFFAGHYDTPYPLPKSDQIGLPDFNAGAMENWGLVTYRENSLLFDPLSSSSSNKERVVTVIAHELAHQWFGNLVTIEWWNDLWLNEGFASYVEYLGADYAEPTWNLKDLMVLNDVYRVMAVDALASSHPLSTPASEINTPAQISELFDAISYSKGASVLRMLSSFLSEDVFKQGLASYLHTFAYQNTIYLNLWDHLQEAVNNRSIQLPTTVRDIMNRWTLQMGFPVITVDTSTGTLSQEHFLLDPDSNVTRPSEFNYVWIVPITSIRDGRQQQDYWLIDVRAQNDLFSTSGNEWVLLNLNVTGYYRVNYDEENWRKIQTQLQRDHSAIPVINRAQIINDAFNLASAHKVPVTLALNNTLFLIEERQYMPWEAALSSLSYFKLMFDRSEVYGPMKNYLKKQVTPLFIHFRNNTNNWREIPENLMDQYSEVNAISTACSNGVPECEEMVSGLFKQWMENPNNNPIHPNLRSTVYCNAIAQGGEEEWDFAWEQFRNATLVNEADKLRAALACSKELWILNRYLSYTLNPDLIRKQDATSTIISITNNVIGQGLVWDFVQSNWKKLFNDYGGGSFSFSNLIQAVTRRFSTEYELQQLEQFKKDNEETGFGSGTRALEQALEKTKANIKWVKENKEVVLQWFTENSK
Test: Measurement of APN activity (fluorogenic substrate (Ala)2-R110)
Assay type: biochemical
Details: human recombinant APN approx. 5 nM, substrate 0.5 μM, pH 7.5

q: Returns the measured IC50 for the input compound. Input: CCCCCCCCCCCC(=O)OC(C(=O)NCC(C)(C)CNC(=O)CC(N)Cc1cc(F)ccc1F)C(N)Cc1ccccc1 (centres unmarked) [drawing 47]
a: 18 µM

q: Field entry: CCCCCCCCCCCCCCCC(=O)NC(CC(=O)NCC(C)(C)CNC(=O)C(O)C(Cc1ccccc1)NC(=O)CCCCCCCCCCCCCCC)Cc1cc(F)ccc1F (centres unmarked) [drawing 62]
a: > 50 µM

q: Field entry: CC(C)(CNCC(N)Cc1cc(F)ccc1F)CNC(=O)C(O)C(N)Cc1ccccc1 (centres unmarked) [drawing 70]
a: 0.33 µM

q: Field entry: CC(C)(NC(=O)CC(N)Cc1ccccc1)C(C)(C)NC(=O)C(O)C(N)Cc1ccccc1 (centres unmarked) [drawing 20]
a: 16.7 µM

q: Field entry: CCC(CC)(CNC(=O)CC(N)Cc1cc(F)ccc1F)CNC(=O)C(O)C(N)Cc1ccccc1 (centres unmarked) [drawing 59]
a: 0.3 µM

q: Field entry: NC(CC(=O)NCCNC(=O)CC(O)C(N)Cc1ccccc1)Cc1ccccc1 (centres unmarked) [drawing 18]
a: > 50 µM

q: Field entry: NC(CC(=O)NCCNC(=O)C(O)C(N)Cc1ccccc1)Cc1cc(F)ccc1F (centres unmarked) [drawing 15]
a: 5.6 µM

q: Field entry: NC(CC(=O)NC(CCCNC(=O)C(O)C(N)Cc1ccccc1)C(=O)O)Cc1cc(F)ccc1F (centres unmarked) [drawing 35]
a: 6.2 µM
